quantity_measured: melting point

compound	quantity_measured	endpoint_result
CN1CCN(c2cccc3c2OC(C(=O)Nc2ccc(N4CCOCC4)cc2)CC3)CC1 (single isomer, unassigned; (-)) [Example 77]	melting point	205.5 to 207 °C
CN1CCN(c2cccc3c2OC(C(=O)Nc2ccc(N4CCOCC4)cc2)CC3)CC1 (single isomer, unassigned; (+)) [Example 76]	melting point	206 to 207 °C
CN1CCN(c2cccc3c(=O)cc(-c4nc5ccc(N6CCOCC6)cc5o4)oc23)CC1 [Example 21]	melting point	158.1 to 158.8 °C
CN1CCN(c2cccc3c2OC(C(=O)Nc2ccc(N4CCOCC4)cc2)CC3=O)CC1 (single isomer, unassigned) [Example 79]	melting point	216 °C (dec.)

---

Reported melting point is given for each of the following molecules.

sample_smiles	melting point
CN1CCN(c2cccc3c(=O)cc(C(=O)N(C)c4ccc(N5CCOCC5)cc4)oc23)CC1	245 to 246.8 °C
CCS(=O)(=O)N1CCN(c2ccc(NC(=O)c3cc(=O)c4cc(F)cc(N5CCN(C)CC5)c4o3)cc2)CC1	233 to 234 °C
CCNC(=O)N1CCN(c2ccc(NC(=O)c3cc(=O)c4cc(F)cc(N5CCN(C)CC5)c4o3)cc2)CC1	236 to 238 °C
COc1cc(N2CCN(C)CC2)c2oc(C(=O)Nc3ccc(N4CCN(C(=O)CCO)CC4)cc3)cc(=O)c2c1	195 to 197 °C

---

Recorded melting point by entry
quantity_measured: melting point

molecule	quantity_measured	endpoint_result
CN1CCN(c2cccc3c(=O)cc(C(=O)Nc4ccc(N5CCOCC5)cc4O)oc23)CC1	melting point	248.4 to 249.6 °C
COc1cc(N2CCN(C)CC2)c2oc(C(=O)Nc3ccc(N4CCOCC4)cc3)cc(=O)c2c1	melting point	234 to 236 °C
CN1CCN(c2cc(F)cc3c(=O)cc(C(=O)Nc4ccc(N5CCN(C(=O)CCO)CC5)cc4)oc23)CC1	melting point	195 to 199 °C
CN1CCN(c2cccc3c2OC(C(=O)Nc2ccc(N4CCOCC4)cc2)CC3=O)CC1 (single isomer, unassigned) [Example 80]	melting point	215 °C (dec.)
CN1CCN(c2cccc3c(=O)cc(C(=O)Nc4ccc(N5CCOCC5)cc4)oc23)CC1	melting point	217 to 218 °C (dec.)
CN1CCN(c2cccc3c2OC(C(=O)Nc2ccc(N4CCOCC4)cc2)CC3)CC1 (racemic) [Example 75]	melting point	215 to 216 °C
CN1CCN(c2cccc3c2OC(C(=O)Nc2ccc(N4CCOCC4)cc2)CC3=O)CC1 (racemic) [Example 78]	melting point	215 to 216 °C
